target: MIF (Homo sapiens, UniProt P14174)
Sequence (P14174 2-115 limits assumed): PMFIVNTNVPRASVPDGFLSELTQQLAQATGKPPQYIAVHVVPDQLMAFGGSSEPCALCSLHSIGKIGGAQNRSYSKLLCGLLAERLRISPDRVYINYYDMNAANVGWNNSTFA

- compound: "S=C=NCCN1CCCCC1 [2PITC, 2-Piperidinoethyl isothiocyanate]"
  target: "MIF (Homo sapiens, UniProt P14174)"
  result units: "µM"
  IC50: 3.09

Where do these numbers come from? They come from paper PMC3607106.
